assay: Total clearance value was evaluated; type: ADME, organism-based; settings: in vivo
measure_name: CLtotal (mL/s)

molecule	CLtotal / mL/s
CCCCc1ncc(/C=C(\Cc2cccs2)C(=O)O)n1Cc1ccc(C(=O)O)cc1	2.5
CCCCC1=NC2(CCCC2)C(=O)N1Cc1ccc(-c2ccccc2-c2nnn[nH]2)cc1	5.1
CCOc1nc2cccc(C(=O)O)c2n1Cc1ccc(-c2ccccc2-c2nnn[nH]2)cc1	1

a. CCCc1nc2c(C)cc(-c3nc4ccccc4n3C)cc2n1Cc1ccc(-c2ccccc2C(=O)O)cc1
b. CCCCC(=O)N(Cc1ccc(-c2ccccc2-c2nnn[nH]2)cc1)[C@H](C(=O)O)C(C)C
Which value of CLtotal is numerically greater: that of a or that of b ? Answer = label.
b
(b: 37 mL/s, a: 19 mL/s)

P. CCCCc1nc(Cl)c(CO)n1Cc1ccc(-c2ccccc2-c2nnn[n-]2)cc1.[K+]
Q. CCCCc1nc(Cl)c(C(=O)O)n1Cc1ccc(-c2ccccc2-c2nn[nH]n2)cc1 [CARBOXYLIC ACID METABOLITE]
Of P versus Q , which is the one with smaller reported CLtotal? Answer = label.
Q

###

Biological target: Type-1 angiotensin II receptor (Homo sapiens) (UniProt P30556)
Sequence (whole entry): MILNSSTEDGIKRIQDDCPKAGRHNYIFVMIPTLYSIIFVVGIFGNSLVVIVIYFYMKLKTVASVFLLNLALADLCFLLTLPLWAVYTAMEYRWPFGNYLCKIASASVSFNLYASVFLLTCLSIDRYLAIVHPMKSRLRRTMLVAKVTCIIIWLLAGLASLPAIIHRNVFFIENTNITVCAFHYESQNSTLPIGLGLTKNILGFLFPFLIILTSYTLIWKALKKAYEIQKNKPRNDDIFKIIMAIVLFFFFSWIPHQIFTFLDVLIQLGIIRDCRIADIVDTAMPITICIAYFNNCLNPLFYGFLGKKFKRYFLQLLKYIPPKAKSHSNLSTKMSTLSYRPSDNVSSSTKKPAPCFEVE
Test: Relative binding affinity of compound to Angiotensin II receptor, type 1 was determined
measure_name: Relative binding affinity

molecule	Relative binding affinity
CCCCc1nc(Cl)c(C(=O)O)n1Cc1ccc(-c2ccccc2-c2nn[nH]n2)cc1 [CARBOXYLIC ACID METABOLITE]	10

A. CCCCc1ncc(/C=C(\Cc2cccs2)C(=O)O)n1Cc1ccc(C(=O)O)cc1
B. CCCCc1nc(Cl)c(CO)n1Cc1ccc(-c2ccccc2-c2nnn[n-]2)cc1.[K+]
Of A versus B , which is the one with smaller reported Relative binding affinity? Answer = label.
B
(B: 50, A: 100)

a. Cc1nc(C)c2c(n1)N(Cc1ccc(-c3ccccc3-c3nnn[nH]3)cc1)C(=O)CC2
b. CCCc1nc2c(C)cc(-c3nc4ccccc4n3C)cc2n1Cc1ccc(-c2ccccc2C(=O)O)cc1
Which value of Relative binding affinity is numerically greater: that of a or that of b ? Answer = label.
a
(a: 20, b: 10)

###

experiment: Renal clearance value was evaluated; format: ADME, organism-based, Kidney; conditions: in vivo
measure_name: CL_renal (mL/s)

compound	unit_abbreviation	experimental_value
CCCCC1=NC2(CCCC2)C(=O)N1Cc1ccc(-c2ccccc2-c2nnn[nH]2)cc1	mL/s	0.02
CCCCc1nc(Cl)c(CO)n1Cc1ccc(-c2ccccc2-c2nnn[n-]2)cc1.[K+]	mL/s	1.1
CCCCc1ncc(/C=C(\Cc2cccs2)C(=O)O)n1Cc1ccc(C(=O)O)cc1	mL/s	0.6

1. CCCCC(=O)N(Cc1ccc(-c2ccccc2-c2nnn[nH]2)cc1)[C@H](C(=O)O)C(C)C
2. CCCCc1nc(Cl)c(C(=O)O)n1Cc1ccc(-c2ccccc2-c2nn[nH]n2)cc1 [CARBOXYLIC ACID METABOLITE]
Of 1 versus 2 , which is the one with smaller reported CL_renal? Answer = label.
2
(2: 0.4 mL/s, 1: 4.8 mL/s)

###

test: Acid dissociation value was evaluated; assay type: ADME
measure_name: pKa

compound_smiles	pKa
CCCCc1ncc(/C=C(\Cc2cccs2)C(=O)O)n1Cc1ccc(C(=O)O)cc1	4
CCOc1nc2cccc(C(=O)O)c2n1Cc1ccc(-c2ccccc2-c2nnn[nH]2)cc1	3.9
CCCCc1nc(Cl)c(C=O)n1Cc1ccc(-c2ccccc2-c2nn[nH]n2)cc1	4
Cc1nc(C)c2c(n1)N(Cc1ccc(-c3ccccc3-c3nnn[nH]3)cc1)C(=O)CC2	4

###

test: Half life of compound was determined; assay type: ADME
measure_name: half-life (min)

molecule	half-life [min]
CCCCc1nc(Cl)c(C(=O)O)n1Cc1ccc(-c2ccccc2-c2nn[nH]n2)cc1 [CARBOXYLIC ACID METABOLITE]	264
CCCCC(=O)N(Cc1ccc(-c2ccccc2-c2nnn[nH]2)cc1)[C@H](C(=O)O)C(C)C	366
